Target: T1, Bfl-1, Q16548
T1 chain: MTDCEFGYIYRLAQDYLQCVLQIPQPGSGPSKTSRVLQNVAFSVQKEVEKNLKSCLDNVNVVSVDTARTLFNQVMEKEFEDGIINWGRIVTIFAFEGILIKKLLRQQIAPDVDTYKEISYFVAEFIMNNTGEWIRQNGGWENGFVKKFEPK
Test: peptide SPOT array, c-Myc-tagged receptor at 1 uM or 100 nM, anti-c-Myc-Cy3
REPORTED METRIC: SPOT signal as a fraction of Bim BH3's signal on the same receptor and array

Use these answered entries as a reference point.
SGLPGLSSVDINNFGDSINESEGIPL [MKI67]
0.04
ELDEDDLEAELDALGDELLADEDSSY [CHMP5]
0.03
TVATRRLSGFLRTLADRLEGTKELLS [MINA]
0.32
FMEKLDNGALLCQLAETMQEKFKESM [GAS2]
0.02
EAVTDGLKRALRSFLNALGNCILDKD [RAD52]
0.04

A: TCLNRGFSRLLDNMAEFFRPTEQDLQ [PEX3]
B: AELEVECATQDRRFGDKLNFRQKLLN [PMAIP1]
C: AIPRAEVAELLVHSGDFLVRESQGKQ [FES]
-- ask Sort by SPOT signal as a fraction of Bim BH3's signal on the same receptor and array, descending. Put the labels in the requested order and list them out.
-- reply B, A, C

A: SQGKHGFTMAMNAFGDMTNEEFRQMM [CTSL2]
B: GYPFNDVCQWDIDRADLIFVVFDPTK [SRL]
-- ask Please indicate which entry, A or B , has the lower recorded SPOT signal as a fraction of Bim BH3's signal on the same receptor and array value. Output the label that corresponds to your choice.
-- reply B
